The reported measurements were obtained from patent US8304382B2.

test-system: UniProt P00760
Bridge positions count the residues as written; N and C are the ends. Peptide text beside a SMILES is read from it.
measured-quantity: Ki (nM)
Numbers only here, please. The scale is nM.

Task: # get_value(readout='Ki', item= CC[C@H](C)[C@H](NC(C)=O)C(=O)N1CCC[C@H]1C(=O)N[C@@H](CCCNC(=N)N)C(=O)N[C@H]1CSSC[C@@H](C(=O)O)NC(=O)[C@H](CCSC)NC(=O)[C@H](CCCCN)NC(=O)[C@H](C(C)C)NC(=O)CNC(=O)[C@@H]2CCCN2C(=O)[C@H](CCSC)NC(=O)[C@H](CCCCN)NC(=O)[C@H](CCCNC(=N)N)NC1=O [SEQ ID NO: 8] (Ac-IPRCRKMPGVKMC-OH; disulfide 4-13) )
Result: 24.8

* * *

test-system: trypsin (Bos taurus, UniProt P00760)
Construct: gene PRSS1
Sequence (P00760 24-246): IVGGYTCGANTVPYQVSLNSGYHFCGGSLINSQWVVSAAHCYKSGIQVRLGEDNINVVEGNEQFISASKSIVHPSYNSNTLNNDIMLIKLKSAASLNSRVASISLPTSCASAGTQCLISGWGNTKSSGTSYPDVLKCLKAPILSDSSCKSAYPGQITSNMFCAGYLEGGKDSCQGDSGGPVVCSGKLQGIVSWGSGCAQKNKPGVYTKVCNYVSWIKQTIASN
protocol: Inhibition of trypsin, determination of inhibition constants (Ki)
Assay type: biochemical
Bridge positions count the residues as written; N and C are the ends. Peptide text beside a SMILES is read from it.
Attribute: Ki
Write down the value, and be sure its unit follows.

Reference set, count: 3
>  <compound>
CC[C@H](C)[C@@H]1NC(=O)[C@H](CCC(=O)O)NC(=O)[C@H](CO)NC(=O)[C@@H](NC(=O)[C@H](CCC(N)=O)NC(=O)[C@H](CCC(N)=O)NC(=O)[C@@H](N)C(C)C)CSSC[C@@H](C(=O)O)NC(=O)[C@@H]2CCCN2C(=O)[C@H](CCCCN)NC(=O)[C@H](C)NC(=O)CNC(=O)[C@H](C)NC1=O [SEQ ID NO: 4] (H-VQQCSEIAGAKPC-OH; disulfide 4-13)

>  <test-system>
trypsin (Bos taurus, UniProt P00760)

>  <Ki>
42 nM

$$$$
>  <compound>
CC[C@H](C)[C@H](N)C(=O)N1CCC[C@H]1C(=O)N[C@@H](CCCNC(=N)N)C(=O)N[C@H]1CSSC[C@@H](C(=O)O)NC(=O)[C@H](CCSC)NC(=O)[C@H](CCCCN)NC(=O)[C@H](C(C)C)NC(=O)CNC(=O)[C@@H]2CCCN2C(=O)[C@H](CCSC)NC(=O)[C@H](CCCCN)NC(=O)[C@H](CCCNC(=N)N)NC1=O [SEQ ID NO: 1] (H-IPRCRKMPGVKMC-OH; disulfide 4-13)

>  <test-system>
trypsin (Bos taurus, UniProt P00760)

>  <Ki>
22.5 nM

$$$$
>  <compound>
CC[C@H](C)[C@H](N)C(=O)N1CCC[C@H]1C(=O)N[C@@H](CCCNC(=N)N)C(=O)N[C@H]1CSSC[C@@H](C(N)=O)NC(=O)[C@H](CCSC)NC(=O)[C@H](CCCCN)NC(=O)[C@H](C(C)C)NC(=O)CNC(=O)[C@@H]2CCCN2C(=O)[C@H](CCSC)NC(=O)[C@H](CCCCN)NC(=O)[C@H](CCCNC(=N)N)NC1=O [SEQ ID NO: 7] (H-IPRCRKMPGVKMC-NH2; disulfide 4-13)

>  <test-system>
trypsin (Bos taurus, UniProt P00760)

>  <Ki>
20 nM

$$$$

Task: # get_value(readout='Ki', item= CC[C@H](C)[C@H](N)C(=O)N1CCC[C@H]1C(=O)N[C@@H](CCCNC(=N)N)C(=O)N[C@H]1CSSC[C@@H](C(=O)O)NC(=O)[C@H](CCSC)NC(=O)[C@H](CCCCN)NC(=O)[C@H](C(C)C)NC(=O)CNC(=O)[C@@H]2CCCN2C(=O)[C@H](CCSC)NC(=O)[C@H](C)NC(=O)[C@H](CCCNC(=N)N)NC1=O [SEQ ID NO: 6] (H-IPRCRAMPGVKMC-OH; disulfide 4-13) )
Result: 24.2 nM
